TARGET_OR_TEST_SYSTEM: T1, human CD3 protein (human, UniProt P07766 23-126; P04234 22-105)
T1 construct: ELISA coating protein; also called Human CD3D & CD3E Heterodimer Protein
T1 sequence (P07766 23-126 limits assumed, chain 1 of 2): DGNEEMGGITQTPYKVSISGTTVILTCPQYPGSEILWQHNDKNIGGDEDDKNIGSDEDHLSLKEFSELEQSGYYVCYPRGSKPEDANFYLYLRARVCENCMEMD
T1 sequence (P04234 22-105 limits assumed, chain 2 of 2): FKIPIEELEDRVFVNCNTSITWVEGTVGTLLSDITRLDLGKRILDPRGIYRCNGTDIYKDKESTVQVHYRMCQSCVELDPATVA
PROCEDURE_TEXT: ELISA, plate-coated CD3;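 note: binding to plate-immobilized human CD3 protein, bound antibody detected with peroxidase-labelled anti-human IgG and TMB, read as absorbance at 450 nm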
The following binders are listed with their measured EC50 values.
A number alone suffices; assume µg/mL.

As a guide, the following entries are already answered.
Hu153A6B1-16 (antibody, V domains shown, humanized mAb) VH: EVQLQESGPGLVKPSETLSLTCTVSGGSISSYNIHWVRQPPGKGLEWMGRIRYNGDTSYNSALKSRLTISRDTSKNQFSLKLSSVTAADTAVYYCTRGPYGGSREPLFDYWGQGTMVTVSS VL: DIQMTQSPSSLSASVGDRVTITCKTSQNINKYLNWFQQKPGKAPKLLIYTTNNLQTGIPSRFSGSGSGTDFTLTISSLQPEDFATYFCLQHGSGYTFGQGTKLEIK	0.00344
Hu155A9B1-7 (antibody, V domains shown, humanized mAb) VH: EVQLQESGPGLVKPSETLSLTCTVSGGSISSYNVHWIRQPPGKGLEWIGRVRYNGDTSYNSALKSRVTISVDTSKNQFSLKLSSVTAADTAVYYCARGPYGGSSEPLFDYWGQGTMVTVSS VL: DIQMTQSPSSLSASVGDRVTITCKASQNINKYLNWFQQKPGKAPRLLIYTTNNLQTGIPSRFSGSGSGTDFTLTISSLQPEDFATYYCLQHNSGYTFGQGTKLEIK	0.136

Then this binder:
// sample Hu192A7B9-7 (antibody, V domains shown, humanized mAb) VH: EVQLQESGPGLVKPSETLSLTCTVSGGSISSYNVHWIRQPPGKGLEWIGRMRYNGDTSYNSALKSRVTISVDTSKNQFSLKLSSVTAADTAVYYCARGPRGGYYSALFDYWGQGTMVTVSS VL: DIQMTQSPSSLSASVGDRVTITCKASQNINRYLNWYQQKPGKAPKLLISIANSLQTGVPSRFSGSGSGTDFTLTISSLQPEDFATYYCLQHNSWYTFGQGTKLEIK , its EC50 was 0.0226
